protocol: DPPH radical scavenging activity assay
Type: biochemical
studyConditions: 42.24 ppm; n = 3
Text: 2,2-Diphenyl-1-picryl hydrazyl (DPPH) is an organic compound composed of a stable organic radical. […] The absorption at 517 nm disappears, and the degree of fading is quantitatively related to the number of electrons it captures. Based on this principle, a spectrophotometer is used to detect the change of the absorbance of the DPPH radical and the sample solution, and the ability of the sample to provide hydrogen atoms and scavenge free radicals can be measured. […]
observable: DPPH Clearance rate (%)
Please respond with the number in % and leave the unit unwritten.

-- ask GET /values?readout=DPPH Clearance rate&item= O=C1O[C@H]([C@@H](O)CO)C(O)=C1O [Vc, vitamin C]
-- reply 89.55

-- ask GET /values?readout=DPPH Clearance rate&item= COc1cc(C2Oc3cc([C@H]4Oc5cc(O)cc(O)c5C(=O)[C@@H]4O)ccc3OC2COC(=O)CCSCCC(=O)OCC2Oc3ccc([C@H]4Oc5cc(O)cc(O)c5C(=O)[C@@H]4O)cc3OC2c2ccc(O)c(OC)c2)ccc1O (stereo partly shown) [Compound of Formula (I)]
-- reply 44.12

-- ask GET /values?readout=DPPH Clearance rate&item= O=C(O)CCSCCC(=O)O [C, 3,3′-Thiodipropionic acid]
-- reply 22.38

-- ask GET /values?readout=DPPH Clearance rate&item= COc1cc(C2Oc3cc([C@H]4Oc5cc(O)cc(O)c5C(=O)[C@@H]4O)ccc3OC2CO)ccc1O (stereo partly shown) [B, Silibinin]
-- reply 27.10

* * *

protocol: DPPH radical scavenging activity assay
Type: biochemical
studyConditions: 21.12 ppm; n = 3
observable: DPPH Clearance rate (%)
Please respond with the number in % and leave the unit unwritten.

-- ask GET /values?readout=DPPH Clearance rate&item= COc1cc(C2Oc3cc([C@H]4Oc5cc(O)cc(O)c5C(=O)[C@@H]4O)ccc3OC2COC(=O)CCSCCC(=O)OCC2Oc3ccc([C@H]4Oc5cc(O)cc(O)c5C(=O)[C@@H]4O)cc3OC2c2ccc(O)c(OC)c2)ccc1O (stereo partly shown)
-- reply 34.16

-- ask GET /values?readout=DPPH Clearance rate&item= COc1cc(C2Oc3cc([C@H]4Oc5cc(O)cc(O)c5C(=O)[C@@H]4O)ccc3OC2CO)ccc1O (stereo partly shown)
-- reply 22.43

-- ask GET /values?readout=DPPH Clearance rate&item= `O=C1O[C@H]([C@@H](O)CO)C(O)=C1O`
-- reply 79.63

-- ask GET /values?readout=DPPH Clearance rate&item= `O=C(O)CCSCCC(=O)O`
-- reply 17.13

* * *

Provide the reported DPPH Clearance rate of each item.
protocol: DPPH radical scavenging activity assay
Format: biochemical
studyConditions: 1.76 ppm; n = 3
Please respond with the number in % and leave the unit unwritten.

-- ask GET /values?readout=DPPH Clearance rate&item= COc1cc(C2Oc3cc([C@H]4Oc5cc(O)cc(O)c5C(=O)[C@@H]4O)ccc3OC2CO)ccc1O (stereo partly shown)
-- reply 8.42

-- ask GET /values?readout=DPPH Clearance rate&item= `O=C(O)CCSCCC(=O)O`
-- reply 6.85

-- ask GET /values?readout=DPPH Clearance rate&item= COc1cc(C2Oc3cc([C@H]4Oc5cc(O)cc(O)c5C(=O)[C@@H]4O)ccc3OC2COC(=O)CCSCCC(=O)OCC2Oc3ccc([C@H]4Oc5cc(O)cc(O)c5C(=O)[C@@H]4O)cc3OC2c2ccc(O)c(OC)c2)ccc1O (stereo partly shown)
-- reply 13.11

-- ask GET /values?readout=DPPH Clearance rate&item= `O=C1O[C@H]([C@@H](O)CO)C(O)=C1O`
-- reply 23.16
